Target: T1, human IL-36R on cells (human, UniProt Q9HB29 20-575)
T1 sequence (looked up): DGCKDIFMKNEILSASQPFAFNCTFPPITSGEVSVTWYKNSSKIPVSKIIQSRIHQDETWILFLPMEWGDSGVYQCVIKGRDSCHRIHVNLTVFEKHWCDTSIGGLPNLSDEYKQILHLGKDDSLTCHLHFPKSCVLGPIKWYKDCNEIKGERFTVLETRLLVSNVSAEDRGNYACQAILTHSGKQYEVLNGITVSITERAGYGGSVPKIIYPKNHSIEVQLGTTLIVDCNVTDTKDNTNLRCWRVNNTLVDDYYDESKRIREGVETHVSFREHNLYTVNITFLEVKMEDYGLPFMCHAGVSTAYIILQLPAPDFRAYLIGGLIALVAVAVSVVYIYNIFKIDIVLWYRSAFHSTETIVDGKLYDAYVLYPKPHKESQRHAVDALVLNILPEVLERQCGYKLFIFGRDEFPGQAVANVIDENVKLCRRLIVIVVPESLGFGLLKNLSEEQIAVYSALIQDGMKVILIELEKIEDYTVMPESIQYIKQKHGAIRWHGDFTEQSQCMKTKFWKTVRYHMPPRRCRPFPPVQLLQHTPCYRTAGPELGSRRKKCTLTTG
Assay: cell-based or functional assay
measuredParameter: IC90, IL-6 release, NCI/ADR-RES cells, trun-IL-36b (nM)
Answer with a number only, understood to be in nM.

Example results:
{"columns": ["binder", "numericResult"],
 "data": [
  ["antibody 81B4 (antibody, V domains shown, Mouse monoclonal from hybridoma; also called 81B4E11; Mouse 81B4) VH: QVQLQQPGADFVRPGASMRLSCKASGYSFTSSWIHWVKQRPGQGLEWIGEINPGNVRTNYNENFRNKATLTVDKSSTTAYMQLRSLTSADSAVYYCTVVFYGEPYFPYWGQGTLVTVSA VL: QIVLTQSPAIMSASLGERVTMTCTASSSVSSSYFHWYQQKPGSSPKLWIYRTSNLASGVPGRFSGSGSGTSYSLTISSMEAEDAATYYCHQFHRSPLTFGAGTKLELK", 0.3],
  ["antibody 33D10 (antibody, V domains shown, Mouse monoclonal from hybridoma; also called 33D10B12; Mouse 33D10) VH: QVQLQQSGTELLKPGASVKLSCKASGNTVTSYWMHWVKQRPGQGLEWIGEILPSTGRTNYNENFKGKAMLTVDKSSSTAYMQLSSLASEDSAVYYCTIVYFGNPWFAYWGQGTLVTVSA VL: QIVLTQSPAIMSASLGERVTMTCTASSSVSSSYLHWYQKKPGSSPKLWVYSTSNLASGVPVRFSGSGSGTSYSLTISSMEAEDAATYYCHQHHRSPVTFGSGTKLEMK", 0.5],
  ["antibody 78C8 (antibody, V domains shown, Mouse monoclonal from hybridoma; also called 78C8D1; Mouse 78C8) VH: QVQLKESGPVLVAPSQSLSITCTVSGFSLTKFGVHWIRQTPGKGLEWLGVIWAGGPTNYNSALMSRLTISKDISQSQVFLRIDSLQTDDTAMYYCAKQIYYSTLVDYWGQGTSVTVSS VL: DVLLTQTPLSLPVSLGDQASISCRSSQNIVHSNGNTYLQWYLQKPGQSPKLLIYKVSNRFSGVPDRFSGSGSGTDFTLKISRVEAEDLGVYYCFQGSHVPFTFGAGTKLELK", 5.8]
]}

# next binder below
If you can, please state the reported IC90, IL-6 release, NCI/ADR-RES cells, trun-IL-36b value of antibody 73F6 (antibody, V domains shown, Mouse monoclonal from hybridoma; also called 73F6F8; Mouse 73F6) VH: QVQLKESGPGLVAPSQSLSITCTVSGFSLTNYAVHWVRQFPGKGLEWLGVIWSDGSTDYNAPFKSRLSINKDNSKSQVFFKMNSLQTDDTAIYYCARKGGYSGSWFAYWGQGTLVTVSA VL: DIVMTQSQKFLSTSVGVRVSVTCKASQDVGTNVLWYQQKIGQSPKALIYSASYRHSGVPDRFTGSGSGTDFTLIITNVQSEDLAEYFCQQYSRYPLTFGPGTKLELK .
5.1
